Target: PAS1(23–168); dimerization helix-containing PAS1 of TodS (Pseudomonas putida, UniProt A5W4E3, F79Y)
Construct: PAS1 sensor domain with dimerization helix, residues 23-168; N-terminal His6 tag kept; E. coli C41(DE3); dimer in solution
Sequence (A5W4E3 23-168 F79Y): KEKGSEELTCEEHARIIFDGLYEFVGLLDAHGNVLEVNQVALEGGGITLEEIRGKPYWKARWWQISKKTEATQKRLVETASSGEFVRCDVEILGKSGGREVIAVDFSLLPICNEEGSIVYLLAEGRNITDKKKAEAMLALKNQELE
Assay: ITC
METRIC_NAME: Kd
Just so you know, I need the unit written after the number.

Problem: What does the data say about its Kd? Entry: Cc1ccccc1
Result: 71.4 µM

----------
Biological target: PAS1(23–168); dimerization helix-containing PAS1 of TodS (Pseudomonas putida, UniProt A5W4E3, V59A)
Construct: PAS1 sensor domain with dimerization helix, residues 23-168; N-terminal His6 tag kept; E. coli C41(DE3); dimer in solution
Sequence (A5W4E3 23-168 V59A): as the sequence (A5W4E3 23-168 F79Y) above, with V37A, Y57F counted along it
Assay: ITC
METRIC_NAME: pKd
Give bare numbers, as −log10 of the molar value.

Problem: What does the data say about its pKd? Entry: Cc1ccccc1
Result: 4.84

// provenance: paper PMC4861429
